- target_under_test: ERα (Homo sapiens (Human), UniProt P03372)
- Sequence (P03372 whole entry): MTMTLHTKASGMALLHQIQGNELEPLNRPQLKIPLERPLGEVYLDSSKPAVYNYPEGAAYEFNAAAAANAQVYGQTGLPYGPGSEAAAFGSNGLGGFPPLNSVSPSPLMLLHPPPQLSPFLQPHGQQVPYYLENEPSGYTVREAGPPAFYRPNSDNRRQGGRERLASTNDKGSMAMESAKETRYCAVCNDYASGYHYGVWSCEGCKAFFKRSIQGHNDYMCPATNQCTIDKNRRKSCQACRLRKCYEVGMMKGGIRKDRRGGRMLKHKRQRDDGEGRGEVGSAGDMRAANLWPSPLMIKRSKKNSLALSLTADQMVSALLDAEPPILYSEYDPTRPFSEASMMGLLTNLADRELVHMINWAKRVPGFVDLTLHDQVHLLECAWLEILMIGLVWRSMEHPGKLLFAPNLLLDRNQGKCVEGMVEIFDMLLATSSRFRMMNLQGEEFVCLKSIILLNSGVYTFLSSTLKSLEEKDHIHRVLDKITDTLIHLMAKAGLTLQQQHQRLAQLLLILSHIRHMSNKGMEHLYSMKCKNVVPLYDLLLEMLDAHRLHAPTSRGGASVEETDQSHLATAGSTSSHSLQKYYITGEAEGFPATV
- assay_comment: ERα degradation (MCF7 cells), in-cell Western
- Type: cell-based
- condition_summary: remaining ERα protein at 10 μM ligand, MCF7 cells, relative to DMSO control
For each record, check the reported % ERα remaining: if it is below 20% write class 1, else write class 0.

CCCc1nnc(/C=C/c2ccc(Oc3c(-c4ccccc4C(C)C)sc4cc(O)ccc34)cc2)[nH]1	class 0
O=C(O)/C=C/c1ccc(Oc2c(-c3ccccc3C(F)F)sc3cc(O)ccc23)cc1	class 1
CC(C)c1cccc(-c2sc3cc(O)ccc3c2Oc2ccc(/C=C/C(=O)O)cc2)c1	class 1

Ask: Criterion: % ERα remaining strictly below 20%. Is it met by `CC(C)c1ccccc1-c1sc2cc(OC(=O)C(C)(C)C)ccc2c1Oc1ccc(/C=C/C(=O)O)cc1` ?
Result: class 1

Ask: Criterion: % ERα remaining strictly below 20%. Is it met by `Cc1cc(F)ccc1-c1sc2cc(O)ccc2c1Oc1ccc(/C=C/c2nnc(C3CC3)o2)cc1` ?
Result: class 0

Ask: Criterion: % ERα remaining strictly below 20%. Is it met by `COc1ccc(-c2sc3cc(O)ccc3c2Oc2ccc(/C=C/C(=O)O)cc2)cc1` ?
Result: class 1

Ask: Criterion: % ERα remaining strictly below 20%. Is it met by `O=C(O)/C=C/c1ccc(Oc2c(-c3ccccc3)sc3cc(O)ccc23)cc1` ?
Result: class 0

// data source = patent US10058534B2
